Measured values drawn from ChEMBL document CHEMBL1151007 for this set.

# Test system: L1210
# measurement_protocol: In vitro cytotoxicity against L1210 mouse leukemia tumor cell line.
# Type: functional, cell-based
property_name: IC50 (µM)

>  <compound>
COCCOCOCC1(O)C(=O)OCc2c1cc1n(c2=O)Cc2cc3ccccc3nc2-1 (stereo not given)

>  <property_name>
IC50

>  <assay_result>
22.2

$$$$
>  <compound>
COCC(=O)OCCC1(O)C(=O)OCc2c1cc1n(c2=O)Cc2cc3ccccc3nc2-1 (stereo not given)

>  <property_name>
IC50

>  <assay_result>
24.5

$$$$
>  <compound>
CC(C)NC(=O)OCC1(O)C(=O)OCc2c1cc1n(c2=O)Cc2cc3ccccc3nc2-1 (stereo not given)

>  <property_name>
IC50

>  <assay_result>
5.97

$$$$
>  <compound>
O=C(Nc1ccccc1)OCC1(O)C(=O)OCc2c1cc1n(c2=O)Cc2cc3ccccc3nc2-1 (stereo not given)

>  <property_name>
IC50

>  <assay_result>
2.77

$$$$
>  <compound>
O=C1OCc2c(cc3n(c2=O)Cc2cc4ccccc4nc2-3)C1(O)CCO (stereo not given)

>  <property_name>
IC50

>  <assay_result>
6.31

$$$$
>  <compound>
O=C1OCc2c(cc3n(c2=O)Cc2cc4ccccc4nc2-3)C1(O)CO (stereo not given)

>  <property_name>
IC50

>  <assay_result>
3.97

$$$$
>  <compound>
CCOCOCC1(O)C(=O)OCc2c1cc1n(c2=O)Cc2cc3ccccc3nc2-1 (stereo not given)

>  <property_name>
IC50

>  <assay_result>
3.4

$$$$
>  <compound>
CC(C)NC(=O)OCCC1(O)C(=O)OCc2c1cc1n(c2=O)Cc2cc3ccccc3nc2-1 (stereo not given)

>  <property_name>
IC50

>  <assay_result>
9.41

$$$$
>  <compound>
O=C(Nc1ccccc1)OCCC1(O)C(=O)OCc2c1cc1n(c2=O)Cc2cc3ccccc3nc2-1 (stereo not given)

>  <property_name>
IC50

>  <assay_result>
6.87

$$$$
>  <compound>
COCOCC1(O)C(=O)OCc2c1cc1n(c2=O)Cc2cc3ccccc3nc2-1 (stereo not given)

>  <property_name>
IC50

>  <assay_result>
1.65

$$$$
